Test system: CC49-TCO
Assay: Ex vivo blocking assay: blocking of [111In]Tz-Tg binding to CC49-TCO in LS174T tumor xenografts
Design: species or system nude BALB/c mice
Settings: change in tumor uptake of [111In]Tz-Tg 22 h p.i.; Tz administered 1 h prior; normalized to non-blocked control; mean from n = 3 mice/group
Property: Normalized Tumor blocking effect

[[record]]
input_smiles = "O=C(O)C(F)(F)F.O=C(O)CN(CCF)Cc1ccc(-c2nncnn2)cc1"
val = 69

[[record]]
input_smiles = "O=C(O)C(F)(F)F.O=C(O)CN(CC(=O)O)Cc1ccc(-c2nnc(-c3ccc(OCCF)cn3)nn2)nc1"
val = 99

[[record]]
input_smiles = "O=C(O)C(F)(F)F.O=C(O)CN(CCF)Cc1cc(F)cc(-c2nncnn2)c1"
val = 76

[[record]]
input_smiles = "O=C(O)C(F)(F)F.O=C(O)CN(CCF)Cc1cccc(-c2nncnn2)c1"
val = 75


Entry source: patent US20240182382A1
